Tested on: Factor 11 protein
Experiment: Factor 11 protein in monkey plasma by sandwich ELISA (Example 46)
Assay type: in vivo, cynomolgus monkeys
Details: Day 45, plasma, 25 mg/kg subcutaneously
Strand notation (5' to 3'): a small letter for the sugar, then the base; units joined by * are phosphorothioate-linked, units joined directly phosphodiester-linked; [ ] holds rarer units or linkages, { } end groups; capitals alone tell only the bases. e = 2'-O-(2-methoxyethyl) (MOE); [5mC] = 5-methylcytosine; d = 2'-deoxy (DNA)
Result type: Inhibition of Factor 11 protein relative to the PBS control (percentage reduction) (%)
Give the quantity in %, number only.

Would you mind telling me what Inhibition of Factor 11 protein relative to the PBS control (percentage reduction) value was observed for 416858 (antisense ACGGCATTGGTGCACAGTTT; 5-10-5 gapmer, further chemistry not given here) [compound 416858] ?
79

Same question for 449709 (antisense eG*e[5mC]*eA*e[5mC]*dA*dG*dT*dT*dT*d[5mC]*dT*dG*dG*d[5mC]*eA*eG*eG*e[5mC]) [compound 449709] please.
48

Same question for 449707 (antisense e[5mC]*eA*e[5mC]*eA*dG*dT*dT*dT*d[5mC]*dT*dG*dG*e[5mC]*eA*eG*eG) [compound 449707] please.
35

----------
System: Factor 11 activity
Assay: Factor 11 protein activity, F11 assay based on clotting time (Example 45)
Assay type: in vivo, cynomolgus monkeys
Details: day 64; escalating dose regimen
Result type: percent inhibition of Factor 11 activity, relative to PBS control (%)
Give the quantity in %, number only.

Would you mind telling me what percent inhibition of Factor 11 activity, relative to PBS control value was observed for ISIS 416858: MOE gapmer, nucleobases 1275 to 1318 of SEQ ID NO: 1 (Table 8) (antisense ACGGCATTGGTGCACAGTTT; MOE gapmer, wing and gap sizes not given here) ?
68

Same question for ISIS 417002: MOE gapmer, nucleobases 1275 to 1318 of SEQ ID NO: 1 (Table 8) (antisense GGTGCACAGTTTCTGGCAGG; MOE gapmer, wing and gap sizes not given here) please.
26

Same question for ISIS 416864: MOE gapmer, nucleobases 1275 to 1318 of SEQ ID NO: 1 (Table 8) (antisense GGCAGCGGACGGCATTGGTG; MOE gapmer, wing and gap sizes not given here) please.
5

Same question for ISIS 416838: MOE gapmer, nucleobases 1018 to 1042 of SEQ ID NO: 1 (Table 6) (antisense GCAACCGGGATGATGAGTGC; MOE gapmer, wing and gap sizes not given here) please.
11

Same question for ISIS 416850: MOE gapmer, nucleobases 1275 to 1318 of SEQ ID NO: 1 (Table 8) (antisense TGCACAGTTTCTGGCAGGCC; MOE gapmer, wing and gap sizes not given here) please.
55

----------
What Half-life of ISIS oligonucleotides in the liver and kidney was measured for each of the following?
Set-up: species or system Sprague-Dawley rats
Conditions: rat, in vivo, sc, 20 mg/kg
Give the quantity in days, number only.

Would you mind telling me what Half-life of ISIS oligonucleotides in the liver and kidney value was observed for 412224 (antisense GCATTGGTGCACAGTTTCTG; 5-10-5 MOE gapmer, further chemistry not given here) [compound 412224] ?
17

Same question for 416852 (antisense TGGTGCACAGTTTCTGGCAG; 5-10-5 gapmer, further chemistry not given here) [compound 416852] please.
28

Same question for 416866 (antisense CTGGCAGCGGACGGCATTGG; 5-10-5 gapmer, further chemistry not given here) [compound 416866] please.
16

Same question for 412223 (antisense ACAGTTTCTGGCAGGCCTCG; 5-10-5 MOE gapmer, further chemistry not given here) [compound 412223] please.
22

Same question for 416859 (antisense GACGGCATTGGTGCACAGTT; 5-10-5 gapmer, further chemistry not given here) [compound 416859] please.
19

Same question for 412225 (antisense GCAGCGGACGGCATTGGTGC; 5-10-5 MOE gapmer, further chemistry not given here) [compound 412225] please.
21

----------
Assay: Hematology assays in cynomolgus monkeys (Example 45)
Format: in vivo
Conditions: day 8; escalating dose regimen
Result type: MCHC (g/dL)
Give the quantity in g/dL, number only.

Would you mind telling me what MCHC value was observed for ISIS 416838: MOE gapmer, nucleobases 1018 to 1042 of SEQ ID NO: 1 (Table 6) (antisense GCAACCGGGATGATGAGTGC; MOE gapmer, wing and gap sizes not given here) ?
30

Same question for ISIS 416850: MOE gapmer, nucleobases 1275 to 1318 of SEQ ID NO: 1 (Table 8) (antisense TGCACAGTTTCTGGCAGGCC; MOE gapmer, wing and gap sizes not given here) please.
29

----------
Assay: Hematology assays in cynomolgus monkeys (Example 46)
Format: in vivo
Conditions: Day 45
Strand notation (5' to 3'): a small letter for the sugar, then the base; units joined by * are phosphorothioate-linked, units joined directly phosphodiester-linked; [ ] holds rarer units or linkages, { } end groups; capitals alone tell only the bases. e = 2'-O-(2-methoxyethyl) (MOE); [5mC] = 5-methylcytosine; d = 2'-deoxy (DNA)
Result type: WBC count (µL⁻¹)
Give the quantity in µL⁻¹, number only.

Would you mind telling me what WBC count value was observed for ISIS 416850: MOE gapmer, nucleobases 1275 to 1318 of SEQ ID NO: 1 (Table 8) (antisense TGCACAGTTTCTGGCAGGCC; MOE gapmer, wing and gap sizes not given here) ?
12000

Same question for ISIS 449709: 3-8-3, 4-8-4, 2-10-2, 3-10-3 or 4-10-4 MOE microwalk gapmer (Table 46) (antisense eG*e[5mC]*eA*e[5mC]*dA*dG*dT*dT*dT*d[5mC]*dT*dG*dG*d[5mC]*eA*eG*eG*e[5mC]) please.
11000

----------
Experiment: Hematology assays in cynomolgus monkeys (Example 46)
Assay type: in vivo
Conditions: Day 55
Strand notation (5' to 3'): a small letter for the sugar, then the base; units joined by * are phosphorothioate-linked, units joined directly phosphodiester-linked; [ ] holds rarer units or linkages, { } end groups; capitals alone tell only the bases. e = 2'-O-(2-methoxyethyl) (MOE); [5mC] = 5-methylcytosine; d = 2'-deoxy (DNA)
Result type: RBC count (µL⁻¹)
Give the quantity in µL⁻¹, number only.

Would you mind telling me what RBC count value was observed for ISIS 416850: MOE gapmer, nucleobases 1275 to 1318 of SEQ ID NO: 1 (Table 8) (antisense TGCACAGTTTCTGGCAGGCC; MOE gapmer, wing and gap sizes not given here) ?
5.6e+06

Same question for ISIS 449708: 3-8-3, 4-8-4, 2-10-2, 3-10-3 or 4-10-4 MOE microwalk gapmer (Table 46) (antisense eA*e[5mC]*eA*dG*dT*dT*dT*d[5mC]*dT*dG*dG*e[5mC]*eA*eG) please.
5.8e+06

Same question for ISIS 449709: 3-8-3, 4-8-4, 2-10-2, 3-10-3 or 4-10-4 MOE microwalk gapmer (Table 46) (antisense eG*e[5mC]*eA*e[5mC]*dA*dG*dT*dT*dT*d[5mC]*dT*dG*dG*d[5mC]*eA*eG*eG*e[5mC]) please.
5.7e+06

----------
Assay: Tolerability in CD1 mice: hematology assays (Example 43)
Type: in vivo
Conditions: 50 mg/kg s.c. twice per week for 6 weeks, blood
Strand notation (5' to 3'): a small letter for the sugar, then the base; units joined by * are phosphorothioate-linked, units joined directly phosphodiester-linked; [ ] holds rarer units or linkages, { } end groups; capitals alone tell only the bases. e = 2'-O-(2-methoxyethyl) (MOE); [5mC] = 5-methylcytosine; d = 2'-deoxy (DNA)
What hematocrit was measured for each of the following?
Give the quantity in %, number only.

Would you mind telling me what hematocrit value was observed for ISIS 449707: 3-8-3, 4-8-4, 2-10-2, 3-10-3 or 4-10-4 MOE microwalk gapmer (Table 46) (antisense e[5mC]*eA*e[5mC]*eA*dG*dT*dT*dT*d[5mC]*dT*dG*dG*e[5mC]*eA*eG*eG) ?
45

Same question for ISIS 449709: 3-8-3, 4-8-4, 2-10-2, 3-10-3 or 4-10-4 MOE microwalk gapmer (Table 46) (antisense eG*e[5mC]*eA*e[5mC]*dA*dG*dT*dT*dT*d[5mC]*dT*dG*dG*d[5mC]*eA*eG*eG*e[5mC]) please.
49

Same question for ISIS 449710: 3-8-3, 4-8-4, 2-10-2, 3-10-3 or 4-10-4 MOE microwalk gapmer (Table 46) (antisense e[5mC]*eA*e[5mC]*dA*dG*dT*dT*dT*d[5mC]*dT*dG*dG*d[5mC]*eA*eG*eG) please.
48

Same question for ISIS 449711: 3-8-3, 4-8-4, 2-10-2, 3-10-3 or 4-10-4 MOE microwalk gapmer (Table 46) (antisense eA*e[5mC]*dA*dG*dT*dT*dT*d[5mC]*dT*dG*dG*d[5mC]*eA*eG) please.
48

Same question for ISIS 449708: 3-8-3, 4-8-4, 2-10-2, 3-10-3 or 4-10-4 MOE microwalk gapmer (Table 46) (antisense eA*e[5mC]*eA*dG*dT*dT*dT*d[5mC]*dT*dG*dG*e[5mC]*eA*eG) please.
48
